The reported measurements were obtained from paper PMC7616177.

experiment_description: 4-day repeat dose tolerability assessment in dogs
experimental_setup: beagle, dog, plasma
assay_endpoint: Cmax at 4 day

Looking for the measured Cmax at 4 day of CCOC(=O)N1CCC[C@H](N2CCC(C(=O)NC3(C)CCC3)CC2)CC1 , can you help?
> 32000 ng/mL

---

target_desc: human M1 receptor (Homo sapiens, UniProt P11229)
Construct: expressed in transfected cells
Sequence (P11229 whole entry): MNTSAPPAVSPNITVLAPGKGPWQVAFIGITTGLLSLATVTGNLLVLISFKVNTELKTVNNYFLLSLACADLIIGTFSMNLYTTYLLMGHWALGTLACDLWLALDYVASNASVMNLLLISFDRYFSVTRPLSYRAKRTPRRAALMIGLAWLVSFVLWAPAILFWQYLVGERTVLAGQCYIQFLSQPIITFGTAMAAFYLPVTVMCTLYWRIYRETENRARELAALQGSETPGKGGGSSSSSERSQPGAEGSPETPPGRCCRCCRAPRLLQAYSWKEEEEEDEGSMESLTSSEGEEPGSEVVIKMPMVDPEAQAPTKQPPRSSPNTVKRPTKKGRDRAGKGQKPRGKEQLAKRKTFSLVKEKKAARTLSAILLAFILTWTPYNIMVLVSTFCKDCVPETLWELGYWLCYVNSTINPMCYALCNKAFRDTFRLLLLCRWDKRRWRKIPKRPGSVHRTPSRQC
experiment_description: Label-free dynamic mass redistribution in CHO cells overexpressing human M1-receptor
Assay type: cell-based
assay_endpoint: pEC50
Answers are plain numbers, as −log10 of the molar value.

Could you share what pEC50 was measured for CCOC(=O)N1CCC[C@H](N2CCC(C(=O)NC3(C)CCC3)CC2)CC1 [HTL9936] , tested on human M1 receptor (Homo sapiens, UniProt P11229)?
7.10

---

target_desc: M1-receptor (Gq/11 protein-coupling) in cortical membranes (Mus musculus)
Construct: Wild-type or M1-KO mice ([Bradley et al., 2017]) (8-12 weeks) were humanely killed and cortical tissue was dissected on ice
Sequence (P12657 whole entry): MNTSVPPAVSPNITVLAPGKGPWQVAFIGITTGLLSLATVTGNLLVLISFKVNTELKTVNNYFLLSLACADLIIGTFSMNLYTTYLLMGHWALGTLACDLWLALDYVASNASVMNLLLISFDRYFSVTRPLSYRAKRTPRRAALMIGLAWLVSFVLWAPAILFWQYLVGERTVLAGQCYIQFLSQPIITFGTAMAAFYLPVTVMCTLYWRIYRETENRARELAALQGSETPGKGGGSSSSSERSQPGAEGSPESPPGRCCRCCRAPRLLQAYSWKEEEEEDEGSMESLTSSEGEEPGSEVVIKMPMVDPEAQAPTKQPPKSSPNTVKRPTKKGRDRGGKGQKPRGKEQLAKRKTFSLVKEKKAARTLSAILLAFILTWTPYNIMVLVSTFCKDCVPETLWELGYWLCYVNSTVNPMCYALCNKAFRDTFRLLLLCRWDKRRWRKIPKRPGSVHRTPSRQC
experiment_description: [35S]-GTPγS binding / Gq/11 protein-coupling in mouse cortical membranes
assay_endpoint: pEC50
Answers are plain numbers, as −log10 of the molar value.

Looking for the measured pEC50 of CCOC(=O)N1CCC[C@H](N2CCC(C(=O)NC3(C)CCC3)CC2)CC1 [HTL9936] , can you help?
5.60

---

experiment_description: Human plasma and CSF pharmacokinetics after single oral dose
Type: in vivo
experimental_setup: CSF, single 54 mg oral dose, read-out: Time of maximum concentration in CSF
assay_endpoint: Tmax

Looking for the measured Tmax of CCOC(=O)N1CCC[C@H](N2CCC(C(=O)NC3(C)CCC3)CC2)CC1 , can you help?
2 to 3 h

---

target_desc: M3-receptor (Homo sapiens, UniProt P20309)
Construct: expressed in transfected cells
Sequence (P20309 whole entry): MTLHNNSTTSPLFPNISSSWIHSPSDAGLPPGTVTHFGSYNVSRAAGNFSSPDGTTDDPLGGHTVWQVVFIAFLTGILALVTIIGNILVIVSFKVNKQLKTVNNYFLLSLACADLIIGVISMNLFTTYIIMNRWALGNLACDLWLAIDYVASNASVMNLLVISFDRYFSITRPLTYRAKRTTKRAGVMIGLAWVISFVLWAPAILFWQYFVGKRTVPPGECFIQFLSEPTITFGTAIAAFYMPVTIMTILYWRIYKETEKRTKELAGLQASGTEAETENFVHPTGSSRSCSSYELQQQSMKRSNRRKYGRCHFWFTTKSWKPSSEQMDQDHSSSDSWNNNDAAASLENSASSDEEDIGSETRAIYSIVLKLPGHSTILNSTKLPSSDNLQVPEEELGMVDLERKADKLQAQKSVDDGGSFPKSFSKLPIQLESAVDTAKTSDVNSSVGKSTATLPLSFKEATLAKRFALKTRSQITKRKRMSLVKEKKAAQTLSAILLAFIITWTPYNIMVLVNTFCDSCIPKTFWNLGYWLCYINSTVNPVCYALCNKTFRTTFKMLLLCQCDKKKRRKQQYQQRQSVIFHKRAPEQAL
experiment_description: M3-receptor functional agonist assay
Type: cell-based
experimental_setup: read-out: M3-receptor EC50
assay_endpoint: EC50

Looking for the measured EC50 of CCOC(=O)N1CCC[C@@H](N2CCC(C(=O)NC3(C)CCC3)CC2)CC1 [(R)-Compound 7] , can you help?
> 20 µM

---

target_desc: M4-receptor (Homo sapiens, UniProt P08173)
Sequence (P08173 1-479): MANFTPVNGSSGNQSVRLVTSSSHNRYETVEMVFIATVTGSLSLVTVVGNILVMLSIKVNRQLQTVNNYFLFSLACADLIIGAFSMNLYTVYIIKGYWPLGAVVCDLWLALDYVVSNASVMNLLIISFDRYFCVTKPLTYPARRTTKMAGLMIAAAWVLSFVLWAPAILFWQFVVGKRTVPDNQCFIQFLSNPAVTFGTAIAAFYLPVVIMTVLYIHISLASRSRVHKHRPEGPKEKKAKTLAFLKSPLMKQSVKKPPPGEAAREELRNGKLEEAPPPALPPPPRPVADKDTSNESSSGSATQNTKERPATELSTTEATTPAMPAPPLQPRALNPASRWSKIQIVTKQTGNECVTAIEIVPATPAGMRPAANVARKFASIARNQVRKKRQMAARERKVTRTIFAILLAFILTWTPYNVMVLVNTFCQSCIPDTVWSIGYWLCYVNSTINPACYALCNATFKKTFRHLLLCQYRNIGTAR
assay_endpoint: Ki (µM)
One number for each entry, in µM.

Looking for the measured Ki of CCOC(=O)N1CCC[C@H](N2CCC(C(=O)NC3(C)CCC3)CC2)CC1 [HTL9936] , can you help?
3.98
